Data credit: patent US9464063B2

This section presents molecules with their documented pEC50 values.
# tested_target: Calcium sensing receptor (hCaSR) (Homo sapiens)
# Sequence (P41180 20-1078): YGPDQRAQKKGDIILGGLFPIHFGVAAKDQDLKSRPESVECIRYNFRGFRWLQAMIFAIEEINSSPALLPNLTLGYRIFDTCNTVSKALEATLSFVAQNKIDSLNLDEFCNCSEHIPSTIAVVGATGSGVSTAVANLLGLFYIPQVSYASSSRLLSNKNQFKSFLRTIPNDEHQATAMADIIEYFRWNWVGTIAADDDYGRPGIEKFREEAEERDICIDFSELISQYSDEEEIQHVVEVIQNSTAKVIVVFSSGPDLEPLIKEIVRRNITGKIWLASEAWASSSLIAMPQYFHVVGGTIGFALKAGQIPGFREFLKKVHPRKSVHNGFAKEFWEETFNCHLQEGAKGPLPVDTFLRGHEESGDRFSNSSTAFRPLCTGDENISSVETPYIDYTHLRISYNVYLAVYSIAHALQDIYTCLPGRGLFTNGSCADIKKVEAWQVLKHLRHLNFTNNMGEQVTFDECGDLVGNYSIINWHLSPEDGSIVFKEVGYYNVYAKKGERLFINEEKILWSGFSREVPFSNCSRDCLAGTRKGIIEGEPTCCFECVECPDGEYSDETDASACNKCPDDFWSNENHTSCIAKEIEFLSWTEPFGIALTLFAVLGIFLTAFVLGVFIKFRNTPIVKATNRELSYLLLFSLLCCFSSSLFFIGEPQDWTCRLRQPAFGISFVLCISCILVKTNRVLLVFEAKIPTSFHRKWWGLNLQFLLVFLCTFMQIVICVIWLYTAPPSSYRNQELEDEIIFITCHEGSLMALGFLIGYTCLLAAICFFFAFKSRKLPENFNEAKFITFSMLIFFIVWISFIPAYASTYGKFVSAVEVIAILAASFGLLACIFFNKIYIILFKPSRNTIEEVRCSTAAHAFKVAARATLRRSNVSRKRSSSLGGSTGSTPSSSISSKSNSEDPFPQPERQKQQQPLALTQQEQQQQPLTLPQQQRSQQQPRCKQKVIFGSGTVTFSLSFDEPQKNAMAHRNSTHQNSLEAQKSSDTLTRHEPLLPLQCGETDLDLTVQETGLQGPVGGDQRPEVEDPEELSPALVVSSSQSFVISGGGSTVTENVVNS
# protocol: In-vitro assay of calcimimetics through modulation of calcium sensing receptor: increase in intracellular calcium [Ca2+]i, FLIPR
# measurement_setup: stably transfected HEK293 cells expressing hCaSR; Fluo4NW dye; 0.3 mM CaCl2; 8-point assay; read-out: EC50 Range
pEC50: −log10 of the molar value. Where a name gives a salt, the structure may show the parent alone.

Cc1ccc(N2CC(CN[C@H](C)c3cccc4ccccc34)Oc3ccccc32)c(C)c1C(=O)O (single isomer, unassigned) [Example 70b, hydrochloride] | > 7.70
C[C@@H](NCC1CN(c2cccc(OCC(=O)O)c2)c2ccccc2O1)c1cccc2ccccc12 (stereo partly drawn) [Example 50, hydrochloride] | 7.30 to 7.70
Cc1cc(N2CC(CCN[C@H](C)c3cccc4ccccc34)Oc3ccccc32)ccc1OCC(=O)O (stereo partly drawn) [Example 144a, hydrochloride] | > 7.70

Then there is this molecule:
Under Calcium sensing receptor (hCaSR) (Homo sapiens): pEC50 value of Cc1ccc(N2CC(CCN[C@H](C)c3cccc4ccccc34)Oc3c(F)cccc32)cc1C(=O)O (single isomer, unassigned) [Example 159a, hydrochloride] ?
7.30 to 7.70
